// provenance: ChEMBL document CHEMBL1153717

- target under test: Low molecular weight protein-tyrosine phosphatase A (Mycobacterium tuberculosis, UniProt P9WIA1)
- Sequence (P9WIA1 whole entry): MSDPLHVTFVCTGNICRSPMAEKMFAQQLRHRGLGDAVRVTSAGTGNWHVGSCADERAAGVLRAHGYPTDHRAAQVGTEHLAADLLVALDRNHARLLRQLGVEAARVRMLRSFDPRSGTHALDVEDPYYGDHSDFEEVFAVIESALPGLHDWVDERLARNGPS
- test details: Inhibition of Mycobacterium tuberculosis PtpA
- run parameters: read-out: Ki
pKi: −log10 of the molar value.
Kindly state pKi for each of the entries shown.

smiles repr	pKi
O=C(Nc1ccccc1F)c1ccc(C(F)(F)P(=O)(O)O)cc1	< 4.00
O=C(Nc1ccccc1Br)c1ccc(C(F)(F)P(=O)(O)O)cc1	4.35
O=P(O)(O)C(F)(F)c1ccc(CNc2ccccc2)cc1	< 4.00

Look at each compound and report its pKi.
1. CNC(=O)c1ccc(C(F)(F)P(=O)(O)O)cc1
2. O=P(O)(O)C(F)(F)c1ccc(S(=O)(=O)Nc2ccccc2)cc1
3. CCN1CCC(NC(=O)c2ccc(C(F)(F)P(=O)(O)O)cc2)CC1

< 4.00
< 4.00
< 4.00

###

- target under test: Dual specificity protein phosphatase 3 (Homo sapiens)
- Sequence (P51452 whole entry): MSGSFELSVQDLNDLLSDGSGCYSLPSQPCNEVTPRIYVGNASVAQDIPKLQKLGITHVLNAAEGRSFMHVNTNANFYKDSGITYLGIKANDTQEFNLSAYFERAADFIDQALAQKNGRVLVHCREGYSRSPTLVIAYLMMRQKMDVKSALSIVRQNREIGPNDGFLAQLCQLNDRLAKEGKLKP
outcome measure: Ki

Please look up its Ki: O=C(Nc1cc(C(F)(F)F)c(Br)c(C(F)(F)F)c1)c1ccc(C(F)(F)P(=O)(O)O)cc1
> 100 µM

###

Kindly state Ki for each of the entries shown.
- target under test: Low molecular weight protein-tyrosine phosphatase A (Mycobacterium tuberculosis)
- test details: Inhibition of Mycobacterium tuberculosis PtpA
- run parameters: read-out: Ki
Numbers only, in µM.

A selection of reference data follows.
smiles repr	measure unit	recorded value
O=C(Nc1ccccc1Cl)c1ccc(C(F)(F)P(=O)(O)O)cc1	µM	68
O=P(O)(O)C(F)(F)c1ccc(Br)cc1	µM	92.3
O=C(Nc1cccc(F)c1)c1ccc(C(F)(F)P(=O)(O)O)cc1	µM	41.8
O=C(Nc1ccc(F)c(C(F)(F)F)c1)c1ccc(C(F)(F)P(=O)(O)O)cc1	µM	11.4
O=C(Nc1ccc(Br)cc1)c1ccc(C(F)(F)P(=O)(O)O)cc1	µM	10.3

Look at each molecule and report its Ki.
1. O=C(Nc1cccc(C(F)(F)F)c1)c1ccc(C(F)(F)P(=O)(O)O)cc1
2. O=P(O)(O)C(F)(F)c1ccc2nn(Cc3ccccc3)cc2c1

1: 10.7; 2: 84.4

###

- target under test: Tyrosine-protein phosphatase non-receptor type 2 (Homo sapiens)
- Sequence (P17706 whole entry): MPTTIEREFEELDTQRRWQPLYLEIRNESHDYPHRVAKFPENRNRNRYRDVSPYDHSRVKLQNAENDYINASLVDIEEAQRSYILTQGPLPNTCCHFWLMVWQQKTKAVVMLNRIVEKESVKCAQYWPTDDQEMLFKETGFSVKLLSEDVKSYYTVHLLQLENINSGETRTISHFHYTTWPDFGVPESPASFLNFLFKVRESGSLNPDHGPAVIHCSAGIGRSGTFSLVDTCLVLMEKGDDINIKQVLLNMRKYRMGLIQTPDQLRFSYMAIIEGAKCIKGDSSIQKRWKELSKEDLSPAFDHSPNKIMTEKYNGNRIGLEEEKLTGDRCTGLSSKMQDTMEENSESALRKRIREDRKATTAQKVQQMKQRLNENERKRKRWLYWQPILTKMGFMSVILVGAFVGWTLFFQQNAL
pKi: −log10 of the molar value.
outcome measure: pKi

Please look up its pKi: O=C(Nc1cc(C(F)(F)F)c(Br)c(C(F)(F)F)c1)c1ccc(C(F)(F)P(=O)(O)O)cc1
< 4.00

###

- target under test: Low molecular weight protein-tyrosine phosphatase A (Mycobacterium tuberculosis)
- test details: Inhibition of Mycobacterium tuberculosis PtpA
- run parameters: read-out: Ki
pKi: −log10 of the molar value.
Record Criterion met whenever pKi is at 5 or higher; record Criterion not met when lower.

smiles repr	label value
CN(C(=O)c1ccc(C(F)(F)P(=O)(O)O)cc1)c1ccccc1	Criterion not met
O=C(Nc1cc(C(F)(F)F)cc(C(F)(F)F)c1)c1ccc(C(F)(F)P(=O)(O)O)cc1	Criterion met
O=C(Nc1ccccc1)c1ccc(C(F)(F)P(=O)(O)O)cc1	Criterion not met

Assess whether reported pKi for O=C(NCC1CCCC1)c1ccc(C(F)(F)P(=O)(O)O)cc1 sits at 5 or higher.
Criterion not met

Check O=C(Nc1ccc(F)cc1)c1ccc(C(F)(F)P(=O)(O)O)cc1 too.
Criterion not met

Check O=C(Nc1ccc(C(F)(F)P(=O)(O)O)cc1)c1ccccc1 too.
Criterion not met

Check O=C(Nc1ccccc1)c1cccc(C(F)(F)P(=O)(O)O)c1 too.
Criterion not met

Check O=C(Nc1cc(C(F)(F)F)c(Br)c(C(F)(F)F)c1)c1ccc(C(F)(F)P(=O)(O)O)cc1 too.
Criterion met

###

- target under test: Receptor-type tyrosine-protein phosphatase F (Homo sapiens)
- Sequence (P10586 whole entry): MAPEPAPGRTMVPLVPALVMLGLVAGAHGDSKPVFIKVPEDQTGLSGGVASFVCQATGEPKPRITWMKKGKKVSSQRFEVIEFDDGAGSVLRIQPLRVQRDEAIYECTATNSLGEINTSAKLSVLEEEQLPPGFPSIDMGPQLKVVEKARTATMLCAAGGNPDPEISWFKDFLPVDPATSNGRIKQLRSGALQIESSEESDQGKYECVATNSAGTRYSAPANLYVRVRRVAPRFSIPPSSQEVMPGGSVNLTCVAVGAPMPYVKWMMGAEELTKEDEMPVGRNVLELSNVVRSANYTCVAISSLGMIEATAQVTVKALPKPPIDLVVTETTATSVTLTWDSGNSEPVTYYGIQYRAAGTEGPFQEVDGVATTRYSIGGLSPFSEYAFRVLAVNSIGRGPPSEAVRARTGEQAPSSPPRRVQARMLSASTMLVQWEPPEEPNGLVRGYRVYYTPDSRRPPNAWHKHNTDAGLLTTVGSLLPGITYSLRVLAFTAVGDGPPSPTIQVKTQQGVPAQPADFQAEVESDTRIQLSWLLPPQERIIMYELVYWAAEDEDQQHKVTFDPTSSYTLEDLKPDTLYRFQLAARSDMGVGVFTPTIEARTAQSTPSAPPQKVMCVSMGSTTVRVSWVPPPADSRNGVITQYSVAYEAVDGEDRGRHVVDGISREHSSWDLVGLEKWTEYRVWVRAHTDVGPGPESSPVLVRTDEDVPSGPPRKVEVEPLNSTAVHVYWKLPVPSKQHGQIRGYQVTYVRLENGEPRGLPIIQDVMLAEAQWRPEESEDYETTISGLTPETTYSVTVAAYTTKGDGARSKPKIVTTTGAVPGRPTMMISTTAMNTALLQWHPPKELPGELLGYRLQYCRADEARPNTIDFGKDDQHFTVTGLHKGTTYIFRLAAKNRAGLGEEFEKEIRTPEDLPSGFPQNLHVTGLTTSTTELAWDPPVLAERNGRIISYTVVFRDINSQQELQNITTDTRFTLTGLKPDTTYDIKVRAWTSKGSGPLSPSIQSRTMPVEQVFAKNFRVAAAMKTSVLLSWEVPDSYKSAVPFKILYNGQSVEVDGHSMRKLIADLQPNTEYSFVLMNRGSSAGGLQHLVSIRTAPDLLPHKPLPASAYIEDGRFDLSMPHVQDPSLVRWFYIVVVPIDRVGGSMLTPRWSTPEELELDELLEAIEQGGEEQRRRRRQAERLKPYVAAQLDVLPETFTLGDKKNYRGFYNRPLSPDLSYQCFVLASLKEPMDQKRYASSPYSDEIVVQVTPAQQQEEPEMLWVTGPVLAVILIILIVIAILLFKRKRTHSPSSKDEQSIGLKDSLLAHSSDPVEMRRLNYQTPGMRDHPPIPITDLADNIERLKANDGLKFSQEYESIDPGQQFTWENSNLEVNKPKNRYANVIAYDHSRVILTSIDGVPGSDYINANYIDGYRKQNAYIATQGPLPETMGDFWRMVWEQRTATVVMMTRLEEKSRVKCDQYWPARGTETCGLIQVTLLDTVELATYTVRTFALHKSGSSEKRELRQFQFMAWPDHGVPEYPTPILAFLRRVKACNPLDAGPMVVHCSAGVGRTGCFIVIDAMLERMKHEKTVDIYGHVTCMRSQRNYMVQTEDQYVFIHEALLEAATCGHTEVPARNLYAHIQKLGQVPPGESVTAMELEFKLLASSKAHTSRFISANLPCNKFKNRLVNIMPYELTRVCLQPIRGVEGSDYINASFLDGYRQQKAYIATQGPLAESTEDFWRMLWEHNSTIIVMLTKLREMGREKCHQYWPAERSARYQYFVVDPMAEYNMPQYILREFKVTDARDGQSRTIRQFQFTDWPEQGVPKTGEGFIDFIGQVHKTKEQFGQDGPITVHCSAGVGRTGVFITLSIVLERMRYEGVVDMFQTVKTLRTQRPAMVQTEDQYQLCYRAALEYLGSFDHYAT
- test details: Inhibition of human LAR
pKi: −log10 of the molar value.
outcome measure: pKi

Please look up its pKi: O=C(Nc1cc(C(F)(F)F)c(Br)c(C(F)(F)F)c1)c1ccc(C(F)(F)P(=O)(O)O)cc1
< 4.00

###

- target under test: Receptor-type tyrosine-protein phosphatase C (Homo sapiens)
- Sequence (P08575 whole entry): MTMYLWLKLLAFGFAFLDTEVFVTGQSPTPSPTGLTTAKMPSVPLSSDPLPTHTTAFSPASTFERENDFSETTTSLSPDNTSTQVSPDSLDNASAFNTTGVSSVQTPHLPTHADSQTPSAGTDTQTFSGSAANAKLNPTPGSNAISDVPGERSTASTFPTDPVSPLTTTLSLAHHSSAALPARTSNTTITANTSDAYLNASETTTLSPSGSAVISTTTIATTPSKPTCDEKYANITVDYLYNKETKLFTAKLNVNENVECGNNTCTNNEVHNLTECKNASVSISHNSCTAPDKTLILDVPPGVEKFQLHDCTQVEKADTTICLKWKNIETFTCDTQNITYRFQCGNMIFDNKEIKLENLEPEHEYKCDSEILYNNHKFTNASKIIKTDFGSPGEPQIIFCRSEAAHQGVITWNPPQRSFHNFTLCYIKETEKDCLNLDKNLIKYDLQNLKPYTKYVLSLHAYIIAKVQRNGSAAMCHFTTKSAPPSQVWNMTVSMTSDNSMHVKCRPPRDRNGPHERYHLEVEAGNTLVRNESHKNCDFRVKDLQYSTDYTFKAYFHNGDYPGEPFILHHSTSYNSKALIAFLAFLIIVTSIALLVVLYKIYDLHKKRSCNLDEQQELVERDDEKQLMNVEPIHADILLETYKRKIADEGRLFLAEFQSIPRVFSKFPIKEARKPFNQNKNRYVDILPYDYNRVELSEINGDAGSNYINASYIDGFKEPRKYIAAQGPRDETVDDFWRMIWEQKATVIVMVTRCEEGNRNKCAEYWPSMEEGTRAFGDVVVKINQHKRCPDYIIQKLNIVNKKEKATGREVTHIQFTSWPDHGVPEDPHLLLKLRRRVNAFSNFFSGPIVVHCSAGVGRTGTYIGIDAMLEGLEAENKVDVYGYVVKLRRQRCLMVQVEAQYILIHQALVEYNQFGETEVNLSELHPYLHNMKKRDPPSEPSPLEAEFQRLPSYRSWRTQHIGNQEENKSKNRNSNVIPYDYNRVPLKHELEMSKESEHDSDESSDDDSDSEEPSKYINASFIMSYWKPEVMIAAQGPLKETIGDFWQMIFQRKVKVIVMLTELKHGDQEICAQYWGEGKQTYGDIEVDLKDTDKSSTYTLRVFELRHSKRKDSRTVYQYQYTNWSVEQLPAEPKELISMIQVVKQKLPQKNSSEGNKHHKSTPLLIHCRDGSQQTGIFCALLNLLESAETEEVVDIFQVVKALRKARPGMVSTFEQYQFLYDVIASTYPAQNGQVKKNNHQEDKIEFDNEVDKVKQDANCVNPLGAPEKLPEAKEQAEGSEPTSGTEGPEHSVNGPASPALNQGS
- test details: Inhibition of human CD45
pKi: −log10 of the molar value.
outcome measure: pKi

Lab note: need pKi for O=C(Nc1cc(C(F)(F)F)c(Br)c(C(F)(F)F)c1)c1ccc(C(F)(F)P(=O)(O)O)cc1 on Receptor-type tyrosine-protein phosphatase C (Homo sapiens), anyone have it?
< 4.00

###

- target under test: Tyrosine-protein phosphatase non-receptor type 1 (Homo sapiens, UniProt P18031)
- Sequence (P18031 whole entry): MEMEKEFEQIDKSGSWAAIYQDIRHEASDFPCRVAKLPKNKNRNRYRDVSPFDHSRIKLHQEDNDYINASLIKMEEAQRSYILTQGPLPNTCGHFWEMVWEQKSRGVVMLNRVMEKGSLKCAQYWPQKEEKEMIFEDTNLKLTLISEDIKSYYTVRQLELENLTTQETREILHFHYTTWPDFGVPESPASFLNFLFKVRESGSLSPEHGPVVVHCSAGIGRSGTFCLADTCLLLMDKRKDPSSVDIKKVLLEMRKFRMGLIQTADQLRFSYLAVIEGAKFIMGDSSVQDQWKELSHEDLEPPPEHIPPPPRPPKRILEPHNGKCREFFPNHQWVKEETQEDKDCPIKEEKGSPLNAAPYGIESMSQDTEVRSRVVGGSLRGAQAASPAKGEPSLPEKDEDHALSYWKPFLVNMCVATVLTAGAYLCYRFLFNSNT
- test details: Inhibition of human PTP1B
pKi: −log10 of the molar value.
outcome measure: pKi

Please look up its pKi: O=C(Nc1cc(C(F)(F)F)c(Br)c(C(F)(F)F)c1)c1ccc(C(F)(F)P(=O)(O)O)cc1
< 4.00
